tested-system: T1, purified extracellular domain of PSMA (prostate-specific membrane antigen), residues 44-750 (UniProt Q04609 44-750)
T1 construct: range 44-750; The limits 44-750 are stated for the immunogen; Docking used PDB 1Z8L; also called soluble PSMA; monomeric PSMA
T1 sequence (Q04609 44-750 limits assumed): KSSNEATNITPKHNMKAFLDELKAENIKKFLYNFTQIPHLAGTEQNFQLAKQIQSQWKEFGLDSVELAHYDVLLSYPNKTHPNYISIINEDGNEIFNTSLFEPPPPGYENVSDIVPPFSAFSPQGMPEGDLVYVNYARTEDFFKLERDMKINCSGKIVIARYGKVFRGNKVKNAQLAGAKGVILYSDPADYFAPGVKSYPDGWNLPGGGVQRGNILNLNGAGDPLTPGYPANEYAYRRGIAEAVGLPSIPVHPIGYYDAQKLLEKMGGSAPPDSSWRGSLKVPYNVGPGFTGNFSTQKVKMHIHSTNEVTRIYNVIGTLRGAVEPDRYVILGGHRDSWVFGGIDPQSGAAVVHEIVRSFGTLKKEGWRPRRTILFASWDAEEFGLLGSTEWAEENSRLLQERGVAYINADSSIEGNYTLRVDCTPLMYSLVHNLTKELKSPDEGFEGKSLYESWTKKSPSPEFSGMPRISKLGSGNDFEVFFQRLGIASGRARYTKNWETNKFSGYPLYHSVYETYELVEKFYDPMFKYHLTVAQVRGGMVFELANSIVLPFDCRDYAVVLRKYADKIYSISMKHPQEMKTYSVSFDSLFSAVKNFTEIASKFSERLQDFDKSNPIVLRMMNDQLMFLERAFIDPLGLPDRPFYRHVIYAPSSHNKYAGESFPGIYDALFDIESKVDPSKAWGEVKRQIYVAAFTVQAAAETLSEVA
test: SPR (ProteOn XPR36), NB immobilised, soluble PSMA as analyte, 1:1 Langmuir, 25 C
Catalogue of binders with associated pKd
pKd is defined as minus the log10 of a concentration measured in mol/L.

Some solved entries appear below for comparison.
binder="NB7 (VHH, also called nanobody 7; anti-PSMA NB7; not shown: His tag (NBs purified on Ni-NTA and detected with anti-His)) VHH: QVQLQESGGGSVQAGGSLRLSCTAPGYTDSNYYMSWFRQAPGKEREWVAGVNTGRGSTSYADSVKGRFTISQDNAKNTMFLQMNSLKPEDTAIYYCAVAACHFCDSLPKTQDEYILWGQGTQVTVSS" reading=10.26
binder="NB13 (VHH, also called nanobody 13; not shown: His tag (NBs purified on Ni-NTA and detected with anti-His)) VHH: QVQLQESGGGSVQTGGSLRLSCAASGYTASFSWIGYFRQAPGKEREGVAVINVGVGSTYYADSVKGRFTISRDNTENTISLEMNSLKPEDTGLYYCAGSLRWSRPPNPISEDAYNYWGQGTQVTVSS" reading=9.22
binder="NB37 (VHH, also called nanobody 37; PDB 6XXP; not shown: His tag (NBs purified on Ni-NTA and detected with anti-His)) VHH: QVQLQESGGGSVEAGGSLRLSCARSGWPYSTYSMNWFRQAPGKEREAVAGISSTMSGIIFAESKAGQFTISQDNAKNTVYLQMNNLKPEDTAIYYCAARRDYSLSSSSDDFDYWGQGTQVTVSS" reading=8.47

Proceed to the following item.
Which value of pKd has been reported for NB8 (VHH, also called nanobody 8; PDB 6XXO; not shown: His tag (NBs purified on Ni-NTA and detected with anti-His)) VHH: QVQLQESGGGSVQAGGSLRLSCARSGWPYSTYSMNWFRQAPGKEREAVAGISSTMSGIIFAESKAGQFTISQDNAKNTVYLQMNNLKPEDTAIYYCAARRDYSLSSSSDDFDYWGQGTQVTVSS in the records?
8.22
